Target: PKN2 (human)
Assay: radiometric filter-binding kinase assay, Kinase HotSpot
Conditions: compound 0.5 µM; ATP 10 µM
residual activity less than 90% is yes (1); residual activity greater than or equal to 90% is no (0).

Below, 5 molecules whose answers are already recorded.
[[record]]
compound_smiles = "CO[C@@H]1[C@H](N(C)C(=O)c2ccccc2)C[C@H]2O[C@]1(C)n1c3ccccc3c3c4c(c5c6ccccc6n2c5c31)C(=O)NC4"
assigned_label = "yes (1)"

[[record]]
compound_smiles = "COc1cc2ncnc(Nc3ccc(OCc4ccccc4)cc3)c2cc1OC"
assigned_label = "no (0)"

[[record]]
compound_smiles = "N#Cc1c[nH]c2c[nH]/c(=N\\Cc3cccnc3)cc2/c1=N\\c1ccc(F)c(Cl)c1"
assigned_label = "yes (1)"

[[record]]
compound_smiles = "O=C1c2ccccc2-c2nc3nnnn3nc21"
assigned_label = "yes (1)"

[[record]]
compound_smiles = "Cc1cccc(-c2nc(C(C)(C)C)[nH]c2-c2ccc3c(c2)OCO3)n1"
assigned_label = "no (0)"


We next turn to a different molecule, shown below.
[ask] Strictly below 90% in residual activity? Fc1ccc(-c2nc3n(c2-c2ccncc2)CCS3)cc1
[reply] no (0)

====

Molecular target: AURKA (human)
Assay: radiometric filter-binding kinase assay, Kinase HotSpot
Conditions: compound 0.5 µM; ATP 10 µM
Please go through the items and note down their residual activity.
Answers are plain numbers, in %.

Worked examples follow.
[[record]]
compound_smiles = "NC(=O)c1cccc(-c2cc(Nc3ccc(OC(F)(F)F)cc3)ncn2)c1"
value_kind = "residual activity"
observed_result = 107

[[record]]
compound_smiles = "C[C@@H]1CCN(C(=O)CC#N)C[C@@H]1N(C)c1ncnc2[nH]ccc12"
value_kind = "residual activity"
observed_result = 84.1

[[record]]
compound_smiles = "Cc1cncc2cccc(S(=O)(=O)N3CCCN(C(=O)CN)C[C@H]3C)c12"
value_kind = "residual activity"
observed_result = 64.7

[[record]]
compound_smiles = "N#C/C(=C\\c1ccc(O)c(O)c1)C(=O)NCc1ccccc1"
value_kind = "residual activity"
observed_result = 92.2


Then there is this molecule:
[ask] Consider the molecule CN(C)S(=O)(=O)c1ccc2c(c1)/C(=C/c1cc3c([nH]1)CCCC3)C(=O)N2 tested on AURKA (human); state its residual activity.
[reply] 16.1

====

Target: UniProtKB Q13882
Sequence (Q13882 whole entry, looked up): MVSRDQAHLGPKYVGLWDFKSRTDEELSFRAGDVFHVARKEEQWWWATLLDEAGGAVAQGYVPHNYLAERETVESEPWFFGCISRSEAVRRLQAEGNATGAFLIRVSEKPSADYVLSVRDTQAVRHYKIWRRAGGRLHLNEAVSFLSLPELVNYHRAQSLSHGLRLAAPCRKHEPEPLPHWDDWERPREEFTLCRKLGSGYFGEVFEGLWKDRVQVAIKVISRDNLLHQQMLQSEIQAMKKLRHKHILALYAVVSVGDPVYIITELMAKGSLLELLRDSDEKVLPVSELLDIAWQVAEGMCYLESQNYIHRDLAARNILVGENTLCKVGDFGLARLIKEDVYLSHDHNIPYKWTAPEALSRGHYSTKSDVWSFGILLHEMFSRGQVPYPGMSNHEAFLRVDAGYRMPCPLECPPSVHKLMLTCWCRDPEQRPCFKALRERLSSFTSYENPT
Test: radiometric filter-binding kinase assay, Kinase HotSpot
Conditions: compound 0.5 µM; ATP 10 µM
Please go through the items and note down their residual activity.
Record the result as number plus unit.

[[record]]
compound_smiles = "O=C1c2ccccc2-c2nc3nnnn3nc21"
observed_result = "111%"


Go through the items and report each one's residual activity.
1. COc1ccc2c(c1)/C(=C/c1cnc[nH]1)C(O)=N2
2. Cc1cccc(-c2nc(C(C)(C)C)[nH]c2-c2ccc3c(c2)OCO3)n1
3. N#C/C(=C\c1ccc(O)c(O)c1)C(=O)NCc1ccccc1
4. O=C1NC(=O)c2c1c1c3ccccc3[nH]c1n1cncc21
5. CN(C)S(=O)(=O)c1ccc2c(c1)/C(=C/c1cc3c([nH]1)CCCC3)C(=O)N2

[reply]
1. 87.7%
2. 87.7%
3. 86.7%
4. 89%
5. 56.3%

====

Please go through the items and note down their residual activity.
Biological target: RET (human)
Assay: radiometric filter-binding kinase assay, Kinase HotSpot
Conditions: compound 0.5 µM; ATP 10 µM
Answers are plain numbers, in %.

Worked examples follow.
[[record]]
compound_smiles = "COc1ccc(Cl)cc1NC(=O)Nc1cc(C)nc2ccccc12"
experimental_system = "RET (human)"
value_kind = "residual activity"
scale_unit = "%"
observed_result = 102

[[record]]
compound_smiles = "COc1cc(Nc2c(C#N)cnc3cc(OCCCN4CCN(C)CC4)c(OC)cc23)c(Cl)cc1Cl"
experimental_system = "RET (human)"
value_kind = "residual activity"
scale_unit = "%"
observed_result = 18.9

[[record]]
compound_smiles = "N#C/C(=C\\c1ccc(O)c(O)c1)C(=O)NCc1ccccc1"
experimental_system = "RET (human)"
value_kind = "residual activity"
scale_unit = "%"
observed_result = 108

[[record]]
compound_smiles = "COc1cc2ncnc(Nc3ccc(OCc4ccccc4)cc3)c2cc1OC"
experimental_system = "RET (human)"
value_kind = "residual activity"
scale_unit = "%"
observed_result = 89.1

[[record]]
compound_smiles = "COc1ccc(C(=O)Nc2sc3c(c2C(N)=O)CCCC3)cc1OC"
experimental_system = "RET (human)"
value_kind = "residual activity"
scale_unit = "%"
observed_result = 102

[[record]]
compound_smiles = "Ic1cccc(CSc2nnc(-c3ccncc3)o2)c1"
experimental_system = "RET (human)"
value_kind = "residual activity"
scale_unit = "%"
observed_result = 103

[[record]]
compound_smiles = "NC(=O)c1cccc(-c2cc(Nc3ccc(OC(F)(F)F)cc3)ncn2)c1"
experimental_system = "RET (human)"
value_kind = "residual activity"
scale_unit = "%"
observed_result = 105

[[record]]
compound_smiles = "O=C1NC(=O)c2c1c1c3ccccc3[nH]c1n1cncc21"
experimental_system = "RET (human)"
value_kind = "residual activity"
scale_unit = "%"
observed_result = 42


Go through the items and report each one's residual activity.
1. COc1ccc(S(=O)(=O)N(CCO)c2ccccc2CN(C)C/C=C/c2ccc(Cl)cc2)cc1
2. O=C1C(Cl)=C(N2C(=O)CCC2=O)C(=O)c2ccccc21
3. N#Cc1c[nH]c2c[nH]/c(=N\Cc3cccnc3)cc2/c1=N\c1ccc(F)c(Cl)c1

[reply]
[103, 98, 107]
